# Test Target: T1, P8A (synthetic construct, N-terminal acetylation; C-terminal amidation)
# T1 chain: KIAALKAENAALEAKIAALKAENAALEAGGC
# Procedure Summary: ITC
Readout Kind: Kd (nM)
Lab book: enter the figure in nM, no units written.

Entry Ac-GEIAALEAKNAALKAEIAALEAKNAALKAGC-NH2 [P7A] — recorded Kd = 19
